Biological target: 5HT-1A receptor (Rattus norvegicus, UniProt P19327)
Sequence (P19327 whole entry): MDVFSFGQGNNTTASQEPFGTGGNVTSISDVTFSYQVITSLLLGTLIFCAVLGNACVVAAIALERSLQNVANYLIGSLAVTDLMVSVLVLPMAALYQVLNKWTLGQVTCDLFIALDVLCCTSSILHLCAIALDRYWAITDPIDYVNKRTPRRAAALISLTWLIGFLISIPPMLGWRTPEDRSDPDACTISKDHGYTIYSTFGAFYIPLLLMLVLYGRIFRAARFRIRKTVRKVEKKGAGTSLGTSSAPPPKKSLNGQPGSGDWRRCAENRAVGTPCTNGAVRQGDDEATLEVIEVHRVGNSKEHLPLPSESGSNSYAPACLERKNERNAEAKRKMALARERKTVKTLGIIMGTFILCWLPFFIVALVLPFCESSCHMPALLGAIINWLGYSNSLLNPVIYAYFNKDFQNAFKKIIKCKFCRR
reported_endpoint: pIC50
To interpret pIC50, take it as minus log10 of a concentration measured in moles per litre.

// returns pIC50 for N=C(c1ccccc1S)N1CCN(CCc2cc3c(cc2Cl)NC(=O)C3)CC1 [Example 1] with 5HT-1A receptor (Rattus norvegicus, UniProt P19327); value = 7.92

---

Assay: aqueous solubility
Type: physicochemical
Conditions: water; dihydrochloride salt, at about 25° C.
Counter-ions that a name gives are not always drawn.
reported_endpoint: solubility

Briefly, solubility measured for N=C(c1ccccc1S)N1CCN(CCc2cc3c(cc2Cl)NC(=O)C3)CC1 [Example 2, dihydrochloride] : ~25 mg/mL
